assayed.system: ERβ (Homo sapiens, UniProt Q92731)
Sequence (Q92731 whole entry): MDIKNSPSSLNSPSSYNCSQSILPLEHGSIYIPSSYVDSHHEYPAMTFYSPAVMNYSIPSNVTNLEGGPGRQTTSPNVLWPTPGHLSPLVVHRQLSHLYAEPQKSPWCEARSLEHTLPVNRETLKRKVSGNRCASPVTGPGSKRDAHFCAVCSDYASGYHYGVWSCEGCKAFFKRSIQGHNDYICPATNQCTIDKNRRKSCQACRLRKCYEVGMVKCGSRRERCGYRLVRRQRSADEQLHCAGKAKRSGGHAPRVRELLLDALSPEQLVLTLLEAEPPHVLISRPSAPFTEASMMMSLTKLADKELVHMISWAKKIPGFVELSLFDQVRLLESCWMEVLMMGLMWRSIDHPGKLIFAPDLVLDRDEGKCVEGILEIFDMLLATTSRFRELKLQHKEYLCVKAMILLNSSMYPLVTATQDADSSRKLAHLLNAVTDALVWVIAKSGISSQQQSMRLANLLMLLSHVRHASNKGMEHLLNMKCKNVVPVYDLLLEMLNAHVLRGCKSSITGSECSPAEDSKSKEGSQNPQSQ
protocol.summary: ERβ luciferase reporter (pERE2TATA-LUC) transactivation assay in transfected HEK293 cells
Format: cell-based
Parameters: expressed in transfected cells; host or cells: HEK293
applied.conditions: HEK293, 24 h, read-out: ERβ receptor activation relative to 10 nM E2 corresponding 100, Table 1, sample concentration 10 μM, mean of at least three independent transfections, SEM typically <15%
readout.name: Emax at 10 µM (%)

a = COC(CC(=O)CCc1ccccc1)Cc1ccc(F)cc1 (stereo not drawn) [Compound 48ab]
b = O=C(Cc1ccccc1)CC(O)CCc1ccccc1 (stereo not drawn) [Compound 20ab, 4-Hydroxy-1,6-diphenylhexan-2-one]
QUERY: Could you kindly indicate whether a or b has the higher Emax at 10 µM value? Answer = label.
RESULT: a

1 = COc1ccc(CC(CC(=O)CCc2ccccc2)OC)cc1 (stereo not drawn) [Compound 47ab]
2 = COc1ccc(C(=O)CC(O)Cc2ccc(OCCN(C)C)cc2)cc1 (stereo not drawn) [Compound 12ab]
QUERY: # min-compare on Emax at 10 µM between 1 and 2 Identify your pick by its label.
RESULT: 2
(2: -8.7%, 1: 4%)

a = O=C(CCCc1ccc(O)cc1)CC(O)Cc1ccccc1 (stereo not drawn) [Compound 40ab]
b = O=C(CCCc1ccccc1)CC(O)CCc1ccccc1 (stereo not drawn) [Compound 43ab, 6-Hydroxy-1,8-diphenyl-octan-4-one]
QUERY: Parameter metric = Emax at 10 µM. Return the lower-valued option from a and b . Choose, then provide that item's label.
RESULT: b
(b: -7.1%, a: 82.3%)
